The values you see were collected from PubChem BioAssay (NCI).

- System: CCRF-CEM leukemia
- assay remarks: NCI tumour cell line growth inhibition, 48 h
Where a SMILES comes first, the peptide text is derived from it. [ ]: non-standard residue; d: D form. The star is where a group is joined. hSer = N[CH](CCO)C(=O)O; Boc = CC(C)(C)OC(=O)*
Examples of compounds with documented TGI follow.
readout type: TGI

{"columns": ["compound", "reported result"],
 "data": [
  ["O=C1Nc2ccc(Cl)cc2/C1=C\\c1c(-c2ccc(F)cc2)nc2ccccn12", "7.24 µM"],
  ["[Cu+2].[Cu+2].[O-]c1ccccc1C=Nc1ccccc1[O-].[O-]c1ccccc1C=Nc1ccccc1[O-]", "21.3 µM"],
  ["Cc1cccc(C)c1NC(=O)CCC(=O)NNC(=O)c1cc(O)c2ccccc2c1", "72.5 µM"],
  ["NCCC1(N)CCNCC1", "> 100 µM"],
  ["C[N+]1(C)C2Cc3ccccc3C1Cc1ccccc12", "> 100 µM"],
  ["COc1ccc(-c2cc(C(=O)Nc3cccc(C(F)(F)F)c3)[nH]c(=S)n2)cc1", "> 100 µM"],
  ["CCCCCCCCCCCCNC(=O)NCC(OCC)OCC", "> 10 µM"],
  ["COc1ccccc1-c1cc2c3c(nc4ccccc42)C(=O)c2cccnc2-c3n1", "> 100 µM"],
  ["CC(C)(C)C1CCC2c3c([nH]c4ccccc34)C3C(=O)N(c4cc(Br)cc(Br)c4)C(=O)C3C2C1 (stereo not drawn)", "25.1 µM"],
  ["O=C(NNc1nc2cc(F)ccc2n2c(CN3CCOCC3)ccc12)c1ccccc1", "4.44 µM"],
  ["O=C1C(=O)c2ccc(Br)cc2-c2cc(Br)ccc21", "1.83 µM"],
  ["COc1ccc(-n2sc3ncc(-c4ccccc4)cc3c2=O)cc1", "> 100 µM"],
  ["O=S(=O)(O)c1ccc(NN(c2c(O)ccc3ccccc23)S(=O)(=O)O)cc1", "> 100 µM"],
  ["COc1c2nc(CCl)n(C)c(=O)c2c(OC)c2c(=O)n(C)c(CCl)nc12", "2.09 µM"],
  ["CCC1(O)C=CC(=O)C=C1", "> 100 µM"],
  ["O=C(NCc1cn(Cc2cccc(Oc3ccccc3)c2)nn1)c1cccnc1Nc1ccccc1", "> 100 µM"],
  ["CO/C(=N\\N=C(/C)C(F)(F)F)c1ccncc1", "> 100 µM"],
  ["O=C1CC(NC(=O)C(F)(F)F)c2c(Br)sc(N3CCC(c4ccccc4)CC3)c21 (stereo not drawn)", "> 100 µM"],
  ["CC12CC3c4ccccc4CN1C3(c1ccccc1)OC2=O (stereo not drawn)", "> 100 µM"],
  ["O=C(Cn1ccnc1[N+](=O)[O-])N(CCO)CCO", "> 580 µM"],
  ["COC1/C=C\\C=C(/C)C(=O)NC2=CC(=O)C(NCCCl)=C(CC(C)CC(OC)C(O)C(C)/C=C(/C)C1OC(N)=O)C2=O (stereo not drawn)", "21.9 µM"],
  ["O=C(NO)c1ccc(C(=O)NO)cc1", "83.1 µM"],
  ["CCOC(=O)c1cc2cc(Cc3ccc4[nH]c(C(=O)OCC)cc4c3)ccc2[nH]1", "> 100 µM"],
  ["Cn1ncc2c(Nc3ccc(Br)cc3)nc(Nc3ccc(Br)cc3)nc21", "22 µM"],
  ["CC(=O)O[C@]1(C(C)=O)CC[C@H]2[C@@H]3C[C@H](C)C4=CC(=O)C=C[C@]4(C)[C@@]3(F)[C@@H](O)C[C@@]21C", "> 100 µM"],
  ["c1ccc2c(c1)O[As](O[As]1Oc3ccccc3O1)O2", "10.8 µM"],
  ["Cc1c2c(n3c(nc4ccccc43)c1C#N)N(c1ccc(Cl)cc1)CC2", "> 100 µM"],
  ["N#CI1OC(=O)c2ccccc21", "> 100 µM"],
  ["CS(=O)(=O)c1nccc(-c2c(-c3cccc(OCc4ccc(F)cc4)c3)nc3sccn23)n1", "> 100 µM"],
  ["O=C1Nc2ccc(F)c3c(OCCO)cc(-c4ccc[nH]4)c1c23", "11.1 µM"],
  ["On1c(-c2ccccc2)c(-c2c(-c3ccccc3)n(O)c3ccccc23)c2ccccc21", "> 100 µM"],
  ["COCCNCC(O)Cn1c2ccc(Cl)cc2c2cc(Cl)ccc21 (stereo not drawn)", "4.25 µM"],
  ["COCCC(NC(=O)C(CC(C)C)NC(=O)OC(C)(C)C)C(N)=O (stereo not drawn) (Boc-Leu-[hSer](Me)-NH2; configuration not given here)", "> 100 µM"],
  ["COc1cc2c(cc1OC)C13CCN4CC5=CCOC(CC(=O)O)C(C5CC41)C3N2 (stereo not drawn)", "> 100 µM"],
  ["CC(NC(=O)c1ccccc1)C(=O)N(Cc1ccccc1)Cc1ccccc1 (stereo not drawn)", "47.1 µM"],
  ["CN(C)CC1CCC/C(=C\\c2ccc(N(C)C)cc2)C1=O (stereo not drawn)", "> 100 µM"],
  ["OCCN1CCN(CCCN2c3ccccc3Sc3ccc(C(F)(F)F)cc32)CC1", "9.67 µM"],
  ["CCCOC(=O)N[C@H]1CCc2c(Br)c(OC)c(OC)c(OC)c2-c2ccc(SC)c(=O)cc21", "> 51.2 µM"]
]}

---

Examples of compounds with documented log10 of TGI follow.
- Test system: OVCAR-3 ovarian
- assay remarks: NCI tumour cell line growth inhibition, 48 h
readout type: log10 of TGI (log10 of the value in µM)

{"columns": ["compound", "readout type", "reported result"],
 "data": [
  ["O=C(NNc1nc2cc(F)ccc2n2c(CN3CCOCC3)ccc12)c1ccccc1", "log10 of TGI", 0.22],
  ["[N-]=N[N+]#I1OC(C(F)(F)F)(C(F)(F)F)c2ccccc21", "log10 of TGI", 1.44],
  ["CCCOC(=O)N[C@H]1CCc2c(Br)c(OC)c(OC)c(OC)c2-c2ccc(SC)c(=O)cc21", "log10 of TGI", 1.02],
  ["C[C@@H]1O[C@@H](O[C@H]2C[C@@H](O)[C@]3(CO)C4C(CC[C@]3(O)C2)[C@@]2(O)CC[C@H](C3=CC(=O)OC3)[C@@]2(C)C[C@H]4O)[C@H](O)[C@H](O)[C@H]1O (stereo not given in full)", "log10 of TGI", -1.31],
  ["CCc1nc2c(O)ccc(O)c2nc1C", "log10 of TGI", 1.45]
]}

---

- System: MCF7 breast
- assay remarks: NCI tumour cell line growth inhibition, 48 h
Examples of compounds with documented GI50 follow.

{"columns": ["compound", "GI50"],
 "data": [
  ["COc1ccc(C(CC(=O)c2ccccc2)C(C(=O)c2ccccc2)C(c2ccc(OC)cc2)C2C(=O)NC(=O)NC2=O)cc1 (centres undefined)", "18.7 µM"],
  ["Cn1ncc2cc(-c3cnc(N)c(Cl)c3N3CCC4(CCNC4=O)CC3)ccc21", "24.6 µM"],
  ["COc1ccccc1-c1cc2c3c(nc4ccccc42)C(=O)c2cccnc2-c3n1", "1.44 µM"],
  ["CN(C(=O)c1ccc(F)cc1C(F)(F)F)C1CCN(c2nnc(-c3ccnn3C)c3ccccc23)CC1", "24.2 µM"]
]}

---

Examples of compounds with documented TGI follow.
- Test system: SW-620 colon
- assay remarks: NCI tumour cell line growth inhibition, 48 h
readout type: TGI

{"columns": ["compound", "readout type", "reported result"],
 "data": [
  ["Brc1c[n+](Cc2ccc3ccccc3c2)cn1Cc1ccc2ccccc2c1", "TGI", "3.62 µM"],
  ["Cn1ncc2c(Nc3ccc(Br)cc3)nc(Nc3ccc(Br)cc3)nc21", "TGI", "8.97 µM"],
  ["COC(=O)OC[C@H]1O[C@@H](n2cc(C)c(=O)[nH]c2=O)CC1OC(=O)OC (stereo partly drawn)", "TGI", "> 100 µM"],
  ["COC(=O)OCC1OC(N2C(=O)NC(=O)C(I)C2N=[N+]=[N-])CC1OC(=O)OC (stereo not drawn)", "TGI", "> 100 µM"],
  ["C=C1CC2CC[C@@]34C[C@@H]5O[C@@H]6C(O[C@H]7CC[C@H](CC(=O)OC8[C@@H](C)C9OC%10C[C@]%11(C[C@@H]%12O[C@@]%13(C[C@@H](C)[C@@H]%12O%11)C[C@H](C)[C@@H]%11OC%12CC(C(O)CO)OC%12C[C@@H]%11O%13)OC%10CC9O[C@H]8C[C@H]8O[C@@H](CC[C@@H]1O2)C[C@@H](C)C8=C)O[C@@H]7[C@@H]6O3)C5O4 (stereo partly drawn)", "TGI", "> 1.48 µM"],
  ["O=C(/C=C/c1ccc(OCCCCCCCCCCOc2ccc(/C=C/C(=O)c3ccc(Cl)cc3)cc2)cc1)c1ccc(Cl)cc1", "TGI", "> 100 µM"],
  ["CC1(C)CCc2c(cc3c(c2O)CCC(C)(C)O3)O1", "TGI", "> 100 µM"],
  ["Cc1c(Cl)ccc2c1NC(=O)C2(O)CC(=O)c1ccc(Cl)cc1Cl (stereo not drawn)", "TGI", "> 50 µM"]
]}
